Target: UniProt:O00519
Sequence (O00519 1-579): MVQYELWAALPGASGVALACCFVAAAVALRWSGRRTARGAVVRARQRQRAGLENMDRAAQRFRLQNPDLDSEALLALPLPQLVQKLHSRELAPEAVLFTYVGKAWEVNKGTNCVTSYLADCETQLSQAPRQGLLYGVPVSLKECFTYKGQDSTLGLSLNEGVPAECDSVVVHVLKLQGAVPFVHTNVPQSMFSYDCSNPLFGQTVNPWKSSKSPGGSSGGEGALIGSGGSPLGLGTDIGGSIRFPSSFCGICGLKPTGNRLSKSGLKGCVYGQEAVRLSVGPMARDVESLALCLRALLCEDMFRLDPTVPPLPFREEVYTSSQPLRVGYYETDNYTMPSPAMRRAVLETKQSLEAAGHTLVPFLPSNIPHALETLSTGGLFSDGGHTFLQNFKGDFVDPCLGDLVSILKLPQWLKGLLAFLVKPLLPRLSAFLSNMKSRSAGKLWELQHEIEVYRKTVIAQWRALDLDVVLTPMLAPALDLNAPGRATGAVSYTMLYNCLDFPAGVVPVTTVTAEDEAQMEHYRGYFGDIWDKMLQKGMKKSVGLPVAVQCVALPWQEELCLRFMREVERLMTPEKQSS
pIC50: −log10 of the molar value.
observable: pIC50

For the compound COc1ccc(OC(=O)NCCCCCCn2c(C)nc(-c3ccccc3)c2-c2ccccc2)cc1 , what pIC50 is on record?
7.00 to 8.00

Same lookup for Cc1nc(-c2ccccc2)c(-c2ccccc2)n1CCCOc1ccc(NC(=O)Oc2ccccc2F)cc1 , please.
5.00 to 6.00

Same lookup for COc1ccccc1OC(=O)NCCCCCn1c(C)nc(-c2ccccc2)c1-c1ccccc1 , please.
6.00 to 7.00

Same lookup for COc1ccc(OC(=O)NCCCCCn2c(C)nc(-c3ccccc3)c2-c2ccccc2)cc1 , please.
7.00 to 8.00

---

This document collects IC50 values reported for human FAAH (Homo sapiens, UniProt O00519).

For the molecule CCOC(=O)Nc1ccc(OCCn2c(C)nc(-c3ccccc3)c2-c2ccccc2)cc1 , what IC50 is on record?
1 to 10 µM

Same lookup for Cc1nc(-c2ccccc2)c(-c2ccccc2)n1CCCCCCCNC(=O)Oc1ccc(Cl)cc1 , please.
< 0.01 µM

Same lookup for Cc1nc(-c2ccccc2)c(-c2ccccc2)n1CCCOc1ccc(NC(=O)Oc2c(F)cccc2F)cc1 , please.
1 to 10 µM

Same lookup for Cc1nc(-c2ccccc2)c(-c2ccccc2)n1CCCCCNC(=O)Oc1ccccc1 , please.
0.01 to 0.1 µM

Same lookup for Cc1nc(-c2ccccc2)c(-c2ccccc2)n1CCCCCCNC(=O)Oc1ccc(F)c(F)c1 , please.
< 0.01 µM

Same lookup for COc1ccc(OC(=O)Nc2ccc(OCCCn3c(C)nc(-c4ccccc4)c3-c3ccccc3)cc2)cc1 , please.
0.1 to 1 µM

Same lookup for Cc1nc(-c2ccccc2)c(-c2ccccc2)n1CCCCCC(NC(=O)Oc1ccccc1F)C(C)C (centres unmarked) , please.
0.1 to 1 µM

Same lookup for Cc1nc(-c2ccccc2)c(-c2ccccc2)n1CCCCCCNC(=O)O/N=C/c1cccc([N+](=O)[O-])c1 , please.
0.01 to 0.1 µM

---

Target: human FAAH (Homo sapiens)
Sequence (O00519 1-579): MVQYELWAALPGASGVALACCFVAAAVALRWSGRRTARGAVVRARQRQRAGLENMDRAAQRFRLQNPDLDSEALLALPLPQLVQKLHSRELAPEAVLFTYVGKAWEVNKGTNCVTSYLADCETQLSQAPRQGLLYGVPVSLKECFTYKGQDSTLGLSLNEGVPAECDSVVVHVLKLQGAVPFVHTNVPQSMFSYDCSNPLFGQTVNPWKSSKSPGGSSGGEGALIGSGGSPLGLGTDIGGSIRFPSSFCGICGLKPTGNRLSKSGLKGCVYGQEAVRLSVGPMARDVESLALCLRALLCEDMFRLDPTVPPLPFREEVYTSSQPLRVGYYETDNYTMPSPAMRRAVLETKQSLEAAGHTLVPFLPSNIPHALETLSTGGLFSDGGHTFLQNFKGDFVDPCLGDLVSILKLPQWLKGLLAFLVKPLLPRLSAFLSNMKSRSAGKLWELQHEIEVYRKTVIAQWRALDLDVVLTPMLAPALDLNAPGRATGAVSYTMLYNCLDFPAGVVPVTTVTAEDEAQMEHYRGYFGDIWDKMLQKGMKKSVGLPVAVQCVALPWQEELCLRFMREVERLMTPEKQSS
pIC50: −log10 of the molar value.
Give pIC50 for every item shown.

Query pIC50 on human FAAH (Homo sapiens) for Cc1nc(-c2ccccc2)c(-c2ccccc2)n1CCOc1ccc(NC(=O)Oc2ccc(Cl)cc2)cc1
5.00 to 6.00

Same lookup for Cc1nc(-c2ccccc2)c(-c2ccccc2)n1CCCCCCNC(=O)O/N=C/c1ccc([N+](=O)[O-])cc1 , please.
7.00 to 8.00

Same lookup for Cc1nc(-c2ccccc2)c(-c2ccccc2)n1CCCOc1ccc(NC(=O)Oc2ccc(Cl)cc2)cc1 , please.
6.00 to 7.00

Same lookup for Cc1nc(-c2ccccc2)c(-c2ccccc2)n1CCCOc1ccc(NC(=O)Oc2ccc(F)c(F)c2)cc1 , please.
6.00 to 7.00

Same lookup for CC(C)=NOC(=O)NCCCCCCn1c(C)nc(-c2ccccc2)c1-c1ccccc1 , please.
7.00 to 8.00

Same lookup for Cc1nc(-c2ccccc2)c(-c2ccccc2)n1CCCCCCNC(=O)O/N=C/c1ccccc1[N+](=O)[O-] , please.
7.00 to 8.00

Same lookup for Cc1nc(-c2ccccc2)c(-c2ccccc2)n1CCOc1ccc(NC(=O)Oc2ccc(F)cc2)cc1 , please.
5.00 to 6.00

Same lookup for CCc1nc(-c2ccccc2)c(-c2ccccc2)n1CCCCCCNC(=O)OC(C)CC (centres unmarked) , please.
5.00 to 6.00

Where do these numbers come from? They come from patent USRE39634E1.
